Target: T1, human TREM2 truncated stalk peptide (aa 149-163) (human, also: biotinylated (site not given here))
T1 construct: also called Human TREM2 peptide (aa 149-163); truncated stalk peptide containing the ADAM10/17 cleavage site
T1 peptide: SFEDAHVEHSISRSL
Assay: ELISA on biotinylated peptide captured by streptavidin; A450 normalised to isotype control
No end group written: not given here.
property_measured: fold over background (A450) (fold)

| binder | property_measured | value |
| --- | --- | --- |
| CL0020214 (antibody, V domains shown, also called Clone CL0020214) VH: QVRLQQSGAELVRPGSSVKLSCKASGYAFSSYWMNWVKQRPGQGLEWIGQIYPGDGDTNYNGNFKGKATLTADNSSSTAYMQLSSLTSEDSAVYFCARRRNGDFGDYAMDYWGQGTSVTVSS VL: QIVLTQSPAIMSASPGEKVTISCSASSSVSYMCWYQQKPGSSPKPWIYRTSTLASGVPARFSGSGSGTSYSLTISSMEAADAATYYCQHYHSYPFTFGAGTKLELK | fold over background (A450) | 1.3 |
| CL0020315 (antibody, V domains shown, also called Clone CL0020315) VH: EVQLQQSGPELVKPGASVKISCKASGYTFTDYNIHWVKQSHGKSLEWIGYIYPYNGVTGYNQKFKSKATLTVDNSSSTAYMELRSLTSEDSAVYYCARSRVDGDYWGQGTTLTVSS VL: DVVMTQTPLSLPVSLGDQASISCRSSQSLVHSNGNTYLHWYLQKPGQSPKLLIYKISNRFSGVPDRFSGSGSGTDFTLKISRVEAEDLGVYFCSQSTHVPLTFGAGTKLELK | fold over background (A450) | 1.3 |
| CL0020201 (antibody, V domains shown, also called Clone CL0020201) VH: EVQLQQSGPVLVKPGASVRMSCKPSGYTFTDYYMNWVKQSHGKSLEWIGSINPYTGGSSYNQNFRGKATLTVDKSSSTAYMELNSLTSEDSAVYYCARGSYYSNLGFAYWGQGTLVTVSA VL: DVQLTQSPSFLTASPGETITINCRASKSISKYLAWYQEKPGKTNKLLISSGSTLQSGIPSRFSGSGSGTDFTLTISSLEPEDFAMYYCQQYSEYPFTFGSGTKLEIK | fold over background (A450) | 1.7 |
